FYI, the data here is from ChEMBL document CHEMBL1201862.

Tested on: A498
test: NCI tumour cell line growth inhibition, 48 h
The source made the active and inactive calls. No stated cut-off is given here; in the data, active = GI50 up to about 1.1 µM and inactive = higher. Non-standard residues stand in square brackets, D forms with d. Residues, ends and D or L forms follow the SMILES beside them. *: point of attachment. X30 = COC1=CC(=O)N(C(=O)[C@@H](O*)C(C)C)[C@H]1Cc1ccccc1; NMeL = CN[C@@H](CC(C)C)C(=O)O; Cbz = O=C(OCc1ccccc1)*
Labels: active, inactive

molecule: N#CC1CCCCOCCOCCOCCOCCOCCCCCC1=O (stereo unspecified)
tested-target: A498
assigned-category: inactive
--
molecule: COc1cccc2c(NNc3ccc(Cl)cc3)c3ccc([N+](=O)[O-])cc3nc12
tested-target: A498
assigned-category: inactive
--
molecule: CNC(=O)CCC(NC(=O)OC(C)(C)C)C(=O)NC(Cc1ccc(NC(=O)CCCCC(C)=O)cc1)C(=O)NCC(=O)NC (stereo unspecified)
tested-target: A498
assigned-category: inactive
--
molecule: O=C(NN=C1NCCCCN1)Nc1ccc(Cl)cc1
tested-target: A498
assigned-category: inactive
--
molecule: O=C(O)CCC(NC(=O)c1ccc(Nc2nc3ccc(C(F)(F)F)cc3nc2C(=O)O)cc1)C(=O)O (stereo unspecified)
tested-target: A498
assigned-category: inactive
--
molecule: CC(=O)OCC12C(=O)C[C@@H](C)C3(CC(c4ccoc4)OC3=O)C1CCC(OC(C)=O)C21CO1 (stereo partly specified)
tested-target: A498
assigned-category: inactive
--
molecule: CCN(CC)CCC(=O)Nc1ccc2c(c1)C(=O)c1ccc(NC(=O)CCN(CC)CC)cc1C2=O
tested-target: A498
assigned-category: inactive
--
molecule: O=S(=O)(O)C(CO)c1ccccc1.O=S(=O)(O)Cc1ccccc1 (stereo unspecified)
tested-target: A498
assigned-category: inactive
--
molecule: COc1c(C2=NC(C(C)C)CO2)ccc2ccccc12 (stereo unspecified)
tested-target: A498
assigned-category: inactive
--
molecule: Cc1c2c(n3c(nc4ccccc43)c1C#N)SCC2
tested-target: A498
assigned-category: inactive
--
molecule: COC(=O)c1cc(=O)nc2cc3cccccc3n12
tested-target: A498
assigned-category: inactive
--
molecule: CC(C)(CO[C@H]1C[C@H]2CC[C@@]1(C)C2(C)C)[N+](=O)[O-]
tested-target: A498
assigned-category: inactive
--
molecule: O=C(Nc1ccc(/N=N/c2ccccc2)cc1)Sc1ccccc1C(=O)O
tested-target: A498
assigned-category: inactive
--
molecule: CN1CN(C2OC(CO)C(O)C2O)c2nc(N)[nH]c(=O)c21 (stereo unspecified)
tested-target: A498
assigned-category: inactive
--
molecule: C1CCNCC1.Oc1ncnc2[nH]cc(CN3CCCCC3)c12
tested-target: A498
assigned-category: inactive
--
molecule: CC(C)NC(=O)N(Nc1ccccc1)C(C)(C)C
tested-target: A498
assigned-category: inactive
--
molecule: COc1c(C)cc2c(c1O)C1C3[C@H]4SC[C@@]5(NCCC6=C5NC5C=CC=CC65)C(=O)OCC(c5c6c(c(C)c(OC(C)=O)c54)OCO6)N3[C@@H](O)C(C2)N1C (stereo partly specified)
tested-target: A498
assigned-category: active
--
molecule: CCCCS(=O)(=O)Nc1ccc(Nc2c3ccccc3nc3ccccc23)c(OC)c1
tested-target: A498
assigned-category: inactive
--
molecule: COC1=CC(=O)N(C(=O)[C@@H](OC(=O)[C@@H]2CCCN2C(=O)[C@@H]2CCCN2C(=O)[C@H](CC(C)C)N(C)C(=O)[C@@H](NC(=O)[C@@H](NC(=O)OCc2ccccc2)C(C)C)C(C)C)C(C)C)[C@H]1Cc1ccccc1 (Cbz-VV[NMeL]PP-X30)
tested-target: A498
assigned-category: inactive
--
molecule: COC(=O)/C(=N\Nc1nc(S)nn1N)C(C#N)c1ccc(Cl)cc1 (stereo unspecified)
tested-target: A498
assigned-category: inactive
--
molecule: C[C@H]1CC(=O)C[C@@H]2CC[C@@H]3[C@H](CC[C@]4(C)C(OC(=O)c5cccc6c(=O)c7ccccc7[nH]c56)CC[C@@H]34)[C@]21C (stereo partly specified)
tested-target: A498
assigned-category: inactive
